molecular target: Retinol-binding protein 4 (Homo sapiens); assay: Antagonist activity at His-tagged recombinant human sRBP […] assessed as disruption of ROH-sRBP-TTR protein interaction after 2 hr by TR-FRET assay
quantity-name: pEC50
Scale note: pEC50 = -log10(concentration in M).

Given the compound CC1=C(/C=C/C(C)=C/C=C/C(C)=C/C(=O)NCC(O)CO)C(C)(C)CCC1 (stereo not given) , what is its reported pEC50? 6.77

Also COC(=O)COc1ccc(NC(=O)/C=C(C)/C=C/C=C(C)/C=C/C2=C(C)CCCC2(C)C)cc1 , if possible. 5.90

Proceed to CC1=C(/C=C/C(C)=C/C=C/C(C)=C/C(=O)N2CCOCC2)C(C)(C)CCC1 6.81

Also check CC1=C(/C=C/C(C)=C/C=C/C(C)=C/C(=O)Nc2ccc(N(C)C)cc2)C(C)(C)CCC1 6.02

Please do the same for CC1=C(/C=C/C(C)=C/C=C/C(C)=C/C(=O)NCCO)C(C)(C)CCC1 as well. 6.84

====

Provide the reported Ratio EC50 of each item.
biological target: Retinol-binding protein 4 (Homo sapiens, UniProt P02753); assay: Antagonist activity at His-tagged recombinant human sRBP […] assessed as disruption of ROH-sRBP-TTR protein interaction after 2 hr by TR-FRET assay relative to control; type: functional

State the recorded Ratio EC50 for this entry: CC1=C(/C=C/C(C)=C/C=C/C(C)=C/C(=O)NCCO)C(C)(C)CCC1 2

And then COC(=O)COc1ccc(NC(=O)/C=C(C)/C=C/C=C(C)/C=C/C2=C(C)CCCC2(C)C)cc1 , what is it? 15

What about CC1=C(/C=C/C(C)=C/C=C/C(C)=C/C(=O)Nc2ccc(N(C)C)cc2)C(C)(C)CCC1 ? 15

Try the compound CC1=C(/C=C/C(C)=C/C=C/C(C)=C/C(=O)N2CCOCC2)C(C)(C)CCC1 2

Now this one: CC1=C(/C=C/C(C)=C/C=C/C(C)=C/C(=O)NCC(O)CO)C(C)(C)CCC1 (stereo not given) 2

====

target: Retinol-binding protein 4 (Homo sapiens); experiment: Binding affinity to immobilized His-tagged recombinant human sRBP assessed as inhibition of sRBP and detergent treated HEK293 membrane interaction at 10 uM after 1 hr by surface plasmon resonance assay
Activity calls are given as the source filed them. No cut-off for these calls is given here.
Choose one outcome from this list and give only that: active, inactive

Hello, I am checking results. What call was entered for CC1=C(/C=C/C(C)=C/C=C/C(C)=C/C(=O)NCC(O)CO)C(C)(C)CCC1 (configuration not stated) ? active

Can you handle CC1=C(/C=C/C(C)=C/C=C/C(C)=C/C(=O)N2CCOCC2)C(C)(C)CCC1 next? active

Another compound to check: CC1=C(/C=C/C(C)=C/C=C/C(C)=C\C(=O)Nc2ccc(O)cc2)C(C)(C)CCC1 active

Do the same for COC(=O)COc1ccc(NC(=O)/C=C(C)/C=C/C=C(C)/C=C/C2=C(C)CCCC2(C)C)cc1 please active

Field entry: CC1=C(/C=C/C(C)=C/C=C/C(C)=C/C(=O)Nc2ccc(N(C)C)cc2)C(C)(C)CCC1 active

And CC1=C(/C=C/C(C)=C/C=C/C(C)=C/C(=O)Nc2ccc(O)cc2)C(C)(C)CCC1 ? inactive

Entry CC1=C(/C=C/C(C)=C/C=C/C(C)=C/C(=O)NCCO)C(C)(C)CCC1 please active
